B1: Azoarcus group I ribozyme (parent)
chain: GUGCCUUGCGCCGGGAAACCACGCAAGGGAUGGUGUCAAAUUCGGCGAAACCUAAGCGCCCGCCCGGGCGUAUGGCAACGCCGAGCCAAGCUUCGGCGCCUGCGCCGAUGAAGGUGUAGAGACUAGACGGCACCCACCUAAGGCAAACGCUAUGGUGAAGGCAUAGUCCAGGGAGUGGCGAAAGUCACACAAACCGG

Variants of: B1
measurement-protocol: reverse-splicing fitness (ratio to wild type); higher = more active; in vitro selection; Mg2+ level not given
Each item that follows carries a reported reverse-splicing fitness.
endpoint-name: reverse-splicing fitness

# mutation-code, endpoint-name, number
rows = [
    ("A111U A120U A145G C150U C169A", "reverse-splicing fitness", 0.00694),
    ("C82U A120G A145C C150A U176A", "reverse-splicing fitness", 0.0076),
    ("C82A A111U A120U A145U C150U C169G", "reverse-splicing fitness", 0.00407),
    ("A111G A120U C150U U176A", "reverse-splicing fitness", 0.23),
    ("C82A A111G A145G C169G U176A", "reverse-splicing fitness", 0.0194),
    ("C82U A111C A120U A145U C150A U176A", "reverse-splicing fitness", 0.00357),
    ("C82A A111G A145G C150G", "reverse-splicing fitness", 0.0329),
    ("A111U A145U", "reverse-splicing fitness", 0.924),
    ("A111G A120C A145U C169U", "reverse-splicing fitness", 0.262),
    ("C82U A111C A120C A145G C150A U176C", "reverse-splicing fitness", 0.0208),
    ("C82G A111C A120C A145U C169G U176G", "reverse-splicing fitness", 0.00713),
    ("A120C A145U C150G C169G U176G", "reverse-splicing fitness", 0.00367),
    ("C82U A111C A120C U176A", "reverse-splicing fitness", 0.0154),
    ("A111U A120U A145C C150A C169U U176A", "reverse-splicing fitness", 0.00285),
    ("A111C A145G C169U U176A", "reverse-splicing fitness", 0.0269),
    ("C82A A111C A120U A145C C150A C169A", "reverse-splicing fitness", 0.00282),
    ("C82G A111G A145G C150G C169U", "reverse-splicing fitness", 0.0102),
    ("C82A A111C A120C A145C C150A C169G U176G", "reverse-splicing fitness", 0.00757),
    ("C82U A111G C150A C169U U176G", "reverse-splicing fitness", 0.00684),
    ("A111C A145G C150U C169G U176G", "reverse-splicing fitness", 0.00741),
    ("C82G A111G A120U A145G C150G U176A", "reverse-splicing fitness", 0.00561),
    ("C82U A111G A120C A145U C150G C169U U176A", "reverse-splicing fitness", 0.00625),
]
